Hey, just so you know, these numbers are from ChEMBL document CHEMBL1137616.

Assay: Solubility by shake flask method
EXPERIMENTAL READOUT: log10 of Solubility (log10 of the value in µM)

CCC(C)n1ncn(-c2ccc(N3CCN(c4ccc(OCC5COC(Cn6cncn6)(c6ccc(Cl)cc6Cl)O5)cc4)CC3)cc2)c1=O (configuration not stated) ... -2.48
Cc1c(C(=O)NN2CCCCC2)nn(-c2ccc(Cl)cc2Cl)c1-c1ccc(Cl)cc1 ... -1.02
COc1ccc(CCN2CCC(Nc3nc4ccccc4n3Cc3ccc(F)cc3)CC2)cc1 ... -1.18
CCCSc1ccc2nc(NC(=O)OC)[nH]c2c1 ... -0.01
COc1ccc2c(c1)c(CC(=O)O)c(C)n2C(=O)c1ccc(Cl)cc1 ... 0.05
COc1ccccc1OCCNCC(O)COc1cccc2[nH]c3ccccc3c12 (configuration not stated) ... -0.15
CC(C)(C)c1ccc(C(O)CCCN2CCC(C(O)(c3ccccc3)c3ccccc3)CC2)cc1 (configuration not stated) ... -1.94
CCOC(=O)C1=C(C)NC(C)=C(C(=O)OC)C1c1cccc(Cl)c1Cl (configuration not stated) ... -0.56
Cc1c(Cl)cccc1Nc1ccccc1C(=O)O ... -1.87
COc1ccc(Cl)cc1C(=O)NCCc1ccc(S(=O)(=O)NC(=O)NC2CCCCC2)cc1 [GLYBURIDE] ... -1.05
CCC1=C(C)CN(C(=O)NCCc2ccc(S(=O)(=O)NC(=O)N[C@H]3CC[C@H](C)CC3)cc2)C1=O [GLIMEPIRIDE] ... -1.90
